Test system: Staphylococcus aureus
Experiment: Antibacterial activity against Staphylococcus aureus ATCC 6538 after 18 hrs by agar dilution method
Type: functional
Conditions: ATCC 6538, 18 h
Recorded MIC values for a group of compounds are listed next.

{"columns": ["Compound", "MIC [µg/mL]"],
 "data": [
  ["O=C(O)c1cn(C2CC2)c2cc(N3CCN(Cc4ccc([N+](=O)[O-])o4)CC3)c(F)cc2c1=O", 0.39],
  ["CCn1cc(C(=O)O)c(=O)c2cc(F)c(N3CCN(Cc4ccc([N+](=O)[O-])o4)CC3)cc21", 1.56],
  ["COc1c(N2CCN(Cc3ccc([N+](=O)[O-])o3)C(C)C2)c(F)cc2c(=O)c(C(=O)O)cn(C3CC3)c12 (stereo not given)", 0.78],
  ["C[C@H]1COc2c(N3CCN(C)CC3)c(F)cc3c(=O)c(C(=O)O)cn1c23.C[C@H]1COc2c(N3CCN(C)CC3)c(F)cc3c(=O)c(C(=O)O)cn1c23.O", 0.39],
  ["CCn1cc(C(=O)O)c(=O)c2cc(F)c(N3CCNCC3)nc21", 0.39]
]}
